- Tested on: K98450-129-R-PDC complex spheroid growth, percent test/control;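 also: luminescence used as a proxy for viable cell amount; spheroids exposed to agents for seven days before the viability readout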
- Measurement Description: Anticancer human tumor K98450-129-R-PDC patient-derived colon adenocarcinoma cell line growth inhibition [RAS]
- Assay Conditions: second compound 0.0949 µM; first compound 0.0316 µM; active compounds read low
Observation Type: viability, T/C

CCN1CCN(Cc2ccc(Nc3ncc(F)c(-c4cc(F)c5nc(C)n(C(C)C)c5c4)n3)nc2)CC1 + CCn1c(-c2cc(N3CCN(C)CC3)cnc2C(C)OC)c2c3cc(ccc31)-c1csc(n1)CC(NC(=O)C1CC1C)C(=O)N1CCCC(N1)C(=O)OCC(C)(C)C2 : 17.3%

Q. Could you tell me which viability, T/C is on file for Cc1nc(N2CCC3(CC2)COC(C)C3N)c(CO)nc1Sc1ccnc(N)c1Cl (configuration not stated) + CCn1c(-c2cc(N3CCN(C)CC3)cnc2C(C)OC)c2c3cc(ccc31)-c1csc(n1)CC(NC(=O)C1CC1C)C(=O)N1CCCC(N1)C(=O)OCC(C)(C)C2 ?
A. 15.2%
